- run description: Chemical stability of the compound in pH 6 to 8 PBS at 100 uM after 24 hrs by RP-HPLC analysis
- Format: physicochemical
- stated conditions: buffer, pH 6, 24 h

structure as smiles: C[n+]1cn([C@@H]2O[C@H](Cn3cc(P(=O)([O-])O)nn3)[C@@H](O)[C@H]2O)c2nc(N)[nH]c(=O)c21
Stability: Stable
//
structure as smiles: C[n+]1cn([C@@H]2O[C@H](Cn3cc(CCP(=O)([O-])O)nn3)[C@@H](O)[C@H]2O)c2nc(N)[nH]c(=O)c21
Stability: Stable
//
structure as smiles: C[n+]1cn([C@@H]2O[C@H](Cn3cc(OCP(=O)([O-])O)nn3)[C@@H](O)[C@H]2O)c2nc(N)[nH]c(=O)c21
Stability: Stable
//
structure as smiles: C[n+]1cn([C@@H]2O[C@H](Cn3cc(CP(=O)([O-])O)nn3)[C@@H](O)[C@H]2O)c2nc(N)[nH]c(=O)c21
Stability: Stable
